Answer each item with its documented melting point.

A selection of reference data follows.
CNc1nnc(C(C)(C)C)s1    79 to 81 °C
COc1nc(C(F)(F)C(F)(F)F)cc(=O)n1-c1cc(C(=O)O)c(Cl)cc1F    197 to 199 °C
COc1ccn(-c2nc(C)c(C(=O)NCc3ccccc3)s2)c(=O)c1    205 to 208 °C

List melting point for every entry below, keeping the order given.
1. COc1ccc(C(=O)O)cc1NC(=O)C(CS)Cc1ccccc1 (configuration not stated)
2. COc1ncccc1C(=O)NCCc1ccncc1
3. CCCCCc1c(/C=C/C(=O)O)oc2cc(OC)ccc12

1: 188 to 192 °C; 2: 84 to 87 °C; 3: 146 to 147 °C

###

Answer each item with its documented melting point.

A selection of reference data follows.
Cc1ccc(-c2cccc(/C=C/C(=O)Nc3ccc(CN4CCCCC4CO)cc3)c2)cc1 (stereo unspecified)    137 to 139 °C
CCOc1ccccc1O[C@@H]1CN(Cc2ccccc2)C[C@H]1O (relative stereo)    88.5 to 90 °C

List melting point for every entry below, keeping the order given.
1. CCS(=O)(=O)c1cccnc1S(N)(=O)=O
2. CCOC(=O)c1cnc2nn(C)cc2c1NC(C)C
3. COC(=O)c1ccc(N)c(C=C(Br)Br)c1
4. CC(C)=CC=C(C#N)c1ccccc1

211 to 212 °C
168 to 170 °C
112 to 113 °C
66 to 67 °C

List melting point for every entry below, keeping the order given.
1. COc1cc(-c2nc(C)nn2C)cc2oc(=O)c(C)c(C)c12
2. Cn1ccnc1Sc1ccc(Nc2c(C#N)cnc3cc(/C=C/CCN4CCCC4)ccc23)cc1Cl
3. CC(=O)OC1CCCC(n2cnc3cc(Cl)c(Cl)cc32)C1OC(C)=O (stereo unspecified)

180 °C
185 to 191 °C
163 to 165 °C

List melting point for every entry below, keeping the order given.
1. N#Cc1cnn2c1NCC=C2c1ccc(Cl)c(Cl)c1
2. C=C(C)C(=O)OCCOc1ccc(-c2cc(OC(=O)C(=C)C)cc(-c3ccc(OCCOC(=O)C(=C)C)cc3)c2)cc1

1. 254 to 256 °C
2. 99 °C

###

readoutLabel: melting point

A selection of reference data follows.
CN(C)CCNC(=O)c1ccc(OCc2ccc(-c3ccccc3)cc2)nc1    151 to 154 °C
CC1=NNC(=O)N(N)C1    117 to 119 °C
CC(COc1ccc(-n2cncn2)cc1)(NS(=O)(=O)Cc1ccccc1)C(=O)O (stereo unspecified)    148 to 151 °C
CCN(CC)c1ccc(C2(c3c(C)n(CC)c4ccccc34)OC(=O)c3ccccc32)c(OC(C)C)c1 (stereo unspecified)    193 °C

List melting point for every entry below, keeping the order given.
1. CCOC(=O)C=Cc1ccc([N+](=O)[O-])c(OC)c1
2. Cc1nc2cc(C(F)(F)F)ccc2n1-c1ccc(OC(C)CCC(=O)O)cc1 (stereo unspecified)
3. Cc1ccc(C(=O)CCCl)cc1

1. 119 to 120 °C
2. 67 to 68 °C
3. 77.5 to 78.5 °C

List melting point for every entry below, keeping the order given.
1. O=C(O)/C=C/c1ccc(N2CCCC2)cc1
2. CCOC(=O)CCN(C)Cc1ccc(NC(=O)C2=Cc3cc(-c4ccc(N5CCOCC5)cc4)ccc3S(=O)(=O)CC2)cc1
3. COc1c(C)cc(-c2cc(-c3ccncc3)c(N3CCOCC3)s2)nc1C
4. CCOC(=O)C1(O)c2ccccc2S(=O)(=O)N1C(C)(C)C (stereo unspecified)
5. CCCCCCCCNC(=O)N(CCCCCSc1nc(-c2ccccc2)c(-c2ccccc2)[nH]1)c1ccccc1

["265 °C", "209 to 211 °C", "129 °C", "93 to 95 °C", "74 to 76 °C"]

List melting point for every entry below, keeping the order given.
1. COc1ccc(CC(SC(C)=O)C(N)=O)cc1C(=O)NCc1ccc(C(F)(F)F)cc1 (stereo unspecified)
2. c1cc(-c2ccc(N3CCNCC3)cc2)[nH]n1
3. Cc1cc(C(=O)N(C)C)cc(N)n1
4. COC(=O)C(C(=O)C(C)C)=C(N)c1ccc(F)cc1
5. CCCCCCc1cn(CC2OC(n3cnc4c(NCc5ccc(OC)cc5)ncnc43)C(O)C2O)nn1 (stereo unspecified)
6. CCNc1cccc(-c2ccnc3c(C(=O)c4ccco4)cnn23)c1

["159 to 161 °C", "290 °C", "165 to 171 °C", "85.8 to 86.6 °C", "101 to 102 °C", "142 to 143 °C"]

List melting point for every entry below, keeping the order given.
1. CCN(CC)C(=O)c1ccccc1C(C)(C)C
2. O=C(Oc1cc(CBr)ccc1F)c1ccccc1
3. COc1cc(C(=O)OCCCCBr)ccc1O

1. 38.5 to 40.5 °C
2. 180 to 182 °C
3. 83 to 88 °C
